system: Candida albicans; assay: Antifungal activity against Candida albicans ATCC 3122 by twofold serial dilution method; assay type: functional
assay endpoint: MIC (µg/mL)
Give just the numeric value; µg/mL need not be written.

INSERT INTO results (molecule, observed_value) VALUES
  ('O=C(c1cccs1)[C@H]1[C@H](c2ccccc2)C2CCCN2[C@]12C(=O)Nc1ccccc12 (some centres undefined)', 100);

What value of measured MIC is listed for COc1ccc([C@@H]2C3CCCN3[C@]3(C(=O)Nc4ccccc43)[C@H]2C(=O)c2cccs2)cc1 (some centres undefined) ? 100

What value of measured MIC is listed for CN(C)c1ccc([C@@H]2C3CCCN3[C@]3(C(=O)Nc4ccccc43)[C@H]2C(=O)c2cccs2)cc1 (some centres undefined) ? 100

What value of measured MIC is listed for O=C(c1cccs1)[C@H]1[C@H](c2cccc(Br)c2)C2CCCN2[C@]12C(=O)Nc1ccccc12 (some centres undefined) ? 50

What value of measured MIC is listed for O=C(c1cccs1)[C@H]1[C@H](c2ccc(Cl)cc2)C2CCCN2[C@]12C(=O)Nc1ccccc12 (some centres undefined) ? 25

What value of measured MIC is listed for O=C(c1cccs1)[C@H]1[C@H](c2ccc([N+](=O)[O-])cc2)C2CCCN2[C@]12C(=O)Nc1ccccc12 (some centres undefined) ? 200

What value of measured MIC is listed for O=C(c1cccs1)[C@H]1[C@H](c2ccc(F)cc2)C2CCCN2[C@]12C(=O)Nc1ccccc12 (some centres undefined) ? 6.25

What value of measured MIC is listed for Cc1ccc([C@@H]2C3CCCN3[C@]3(C(=O)Nc4ccccc43)[C@H]2C(=O)c2cccs2)cc1 (some centres undefined) ? 100

What value of measured MIC is listed for `C[C@@H]1[C@H](O)[C@@H](C)/C=C/C=C/C=C/C=C/C=C/C=C/C=C/[C@H](O[C@@H]2O[C@H](C)[C@@H](O)[C@H](N)[C@@H]2O)C[C@@H]2O[C@](O)(C[C@@H](O)C[C@@H](O)[C@H](O)CC[C@@H](O)C[C@@H](O)CC(=O)O[C@H]1C)C[C@H](O)[C@H]2C(=O)O` ? 25

Entry source: ChEMBL document CHEMBL1629501
